Tested on: PLK1
Settings: concentration: 1 μM, replicates: in singlicate; n = 1;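 note: KINOMEscan kinase panel screen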
Measured endpoint: %Inh (%)
Expressed in %, but write only the number.

See these solved cases before continuing.
Cl.Cn1ccc(-c2cccc(Nc3ccnc4cc(-c5nccs5)ccc34)c2)n1 ... 0
COc1cc2c(Nc3cccc(NC(=O)c4ccccc4)c3)ncnc2cc1OCCCN1CCOCC1 ... 0
COc1cc2ncnc(Nc3ccc(OCc4ccccc4Br)c(Cl)c3)c2cc1OC.Cl ... 3

# next molecule below
Sample COC(=O)c1cccc(NC(=O)NCCNc2ccnc(Nc3ccc(F)cc3)n2)c1 — what was its %Inh?
4

----------
System: SNRK
Details: concentration: 1 μM, replicates: in singlicate; n = 1
Catalogue of %Inh readings, one per entry.
Expressed in %, but write only the number.

See these solved cases before continuing.
Cl.Cl.c1ccc(-c2cc3ccncc3cc2OC2CCNCC2)cc1 ... 14
Nc1n[nH]c2nnc(-c3ccccc3)cc12 ... 2
COC(=O)c1cccc(NC(=O)NCCNc2ccnc(Nc3ccc(F)cc3)n2)c1 ... 0
COc1ccc(-c2nc3n(c2-c2ccncc2)CCC3)cc1 ... 0
Cn1ccc2ncnc(Nc3ccc(Oc4cccc(Cl)c4)c(Cl)c3)c21 ... 0
FC(F)(F)c1ccc(-c2cc(-c3c[nH]nc3-c3ccccn3)ccn2)cc1 ... 100

Sample Clc1cccc(-c2nc(Nc3ccncc3)c3ccccc3n2)c1 — what was its %Inh?
0

What about Cn1cc(-c2ccc3c(c2)CCN3C(=O)Cc2cccc(C(F)(F)F)c2)c2c(N)ncnc21 ?
1
